Record form. Attribute: IC50. Fill in for each entry.
molecular target: CBP (Homo sapiens (Human)); test: HTRF biochemical assay for CBP activity (TR-FRET, bromodomain); type: binding; conditions: geometric mean, 10-point 3-fold dilution 33 μM to 1.7 nM, read-out: BROMO IC50 TRF TB CBP (μM gmean)
Sequence (Q92793 1085-1192): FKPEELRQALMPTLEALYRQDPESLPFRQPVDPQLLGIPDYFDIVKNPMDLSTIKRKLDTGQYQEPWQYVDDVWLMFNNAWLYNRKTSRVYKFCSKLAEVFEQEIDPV

Request: Please tell me: IC50 of COC(=O)N1CCc2ccc3c(nc(C4CCCCC4)n3[C@H](C)C[C@@H]3CCCC[C@H]3C(=O)O)c2C1 [Compound 251] , system CBP (Homo sapiens (Human))?
Response: 0.01 to 0.1 µM

Request: Please tell me: IC50 of COC(=O)N1CCc2ccc3c(nc(N4CCC(C(=O)O)CC4)n3[C@@H](C)Cc3ccccc3)c2C1 (single isomer, unassigned) [Compound 5] , system CBP (Homo sapiens (Human))?
Response: 0.001 to 0.01 µM

Request: Please tell me: IC50 of COC(=O)N1CCc2ccc3c(nc(-c4cccnc4)n3[C@@H](C)Cc3ccccc3)c2C1 [Compound 127] , system CBP (Homo sapiens (Human))?
Response: 0.001 to 0.01 µM

Request: Please tell me: IC50 of COC(=O)N1CCc2ccc3c(nc([C@H]4CC[C@](C)(C(=O)O)CC4)n3[C@@H](C)Cc3ccccc3)c2C1 [Compound 224] , system CBP (Homo sapiens (Human))?
Response: 0.01 to 0.1 µM

----------
target: CBP (Homo sapiens (Human)); experiment: HTRF biochemical assay for CBP activity (TR-FRET, bromodomain); format: binding; conditions: geometric mean, 10-point 3-fold dilution 33 μM to 1.7 nM, read-out: BROMO IC50 TRF TB CBP (μM gmean)
Record form. Attribute: IC50. Fill in for each entry.

Request: Quick one: IC50 of COC(=O)N1CCc2ccc3c(nc([C@H]4CC[C@H](C(=O)O)CC4)n3Cc3ccc4c(c3)OCC4)c2C1 [Compound 86] ?
Response: 0.001 to 0.01 µM

Request: Quick one: IC50 of COC(=O)N1CCc2ccc3c(nc([C@H]4CC[C@H](C(=O)O)CC4)n3C[C@@H]3CCc4ccccc4C3)c2C1 [Compound 211] ?
Response: 0.01 to 0.1 µM

Request: Quick one: IC50 of COC(=O)N1CCc2c([C@H]3CCOC3)cc3c(nc([C@H]4CC[C@H](C(=O)O)CC4)n3[C@H](C)Cc3ccccc3)c2C1 [Compound 201] ?
Response: 0.01 to 0.1 µM

Request: Quick one: IC50 of COC(=O)N1CCc2ccc3c(nc([C@H]4CC[C@H](C(=O)O)CC4)n3[C@@H](C)Cc3ccc(C)c(F)c3)c2C1 (single isomer, unassigned) [Compound 2] ?
Response: 0.001 to 0.01 µM

Request: Quick one: IC50 of COC(=O)N1CCc2ccc3c(nc(C4CCCCC4)n3C[C@H](CC(=O)O)c3ccc(F)c(F)c3)c2C1 [Compound 70] ?
Response: 0.001 to 0.01 µM

Request: Quick one: IC50 of COC(=O)N1CCc2ccc3c(nc(C4CCCCC4)n3C[C@@H](C(=O)O)c3cc(F)c(C)cc3OC)c2C1 (single isomer, unassigned) [Compound 278] ?
Response: 0.01 to 0.1 µM

----------
biological target: CBP (Homo sapiens (Human)); test: HTRF biochemical assay for CBP activity (TR-FRET, bromodomain); type: binding; conditions: geometric mean, 10-point 3-fold dilution 33 μM to 1.7 nM, read-out: BROMO IC50 TRF TB CBP (μM gmean)
outcome_measure: IC50

Request: Quick one: IC50 of COC(=O)N1CCc2ccc3c(nc([C@H]4CCCOC4)n3C[C@H](C(=O)O)c3ccccc3)c2C1 [Compound 89] ?
Response: 0.001 to 0.01 µM

Request: Quick one: IC50 of COC(=O)N1CCc2ccc3c(nc(N4CCN(S(C)(=O)=O)CC4)n3[C@@H](C)Cc3ccccc3)c2C1 [Compound 80] ?
Response: 0.001 to 0.01 µM

Request: Quick one: IC50 of COC(=O)N1CCc2ccc3c(nc(C4CCCCC4)n3[C@@H](C)CC3CCCC[C@@H]3C(=O)O)c2C1 (stereo partly drawn) [Compound 39] ?
Response: 0.001 to 0.01 µM

Request: Quick one: IC50 of COC(=O)N1CCc2ccc3c(nc([C@H]4CC[C@H](C(=O)O)CC4)n3[C@@H](C)Cc3ccncc3)c2C1 [Compound 216] ?
Response: 0.01 to 0.1 µM

Request: Quick one: IC50 of COC(=O)N1CCc2ccc3c(nc([C@H]4CC[C@H](C(=O)O)CC4)n3[C@H](C)Cc3ccc(C)c(F)c3)c2C1 (single isomer, unassigned) [Compound 283] ?
Response: 0.01 to 0.1 µM

Request: Quick one: IC50 of COC(=O)N1CCc2c(Cl)cc3c(nc(C4CCCCC4)n3C[C@@H](C(=O)O)c3ccccc3)c2C1 [Compound 56] ?
Response: 0.001 to 0.01 µM

Request: Quick one: IC50 of COC(=O)N1CCc2ccc3c(nc([C@@H]4CCC[C@@H](C(=O)O)C4)n3C[C@H]3CC[C@@H](OC)CC3)c2C1 [Compound 259] ?
Response: 0.01 to 0.1 µM

Request: Quick one: IC50 of COC(=O)N1CCc2ccc3c(nc([C@H]4CC[C@H](S(N)(=O)=O)CC4)n3[C@H](C)Cc3ccccc3)c2C1 [Compound 301] ?
Response: 0.1 to 1 µM

Request: Quick one: IC50 of COC(=O)N1CCc2ccc3c(nc(N4CCN(C(C)=O)CC4)n3[C@@H](C)Cc3ccccc3)c2C1 [Compound 324] ?
Response: 0.1 to 1 µM

Request: Quick one: IC50 of COC(=O)N1CCc2ccc3c(nc(C4CCCCC4)n3C[C@H](O)c3cccc(C(=O)O)c3)c2C1 [Compound 173] ?
Response: 0.01 to 0.1 µM

Request: Quick one: IC50 of COC(=O)N1CCc2ccc3c(nc([C@H]4CC[C@H](C(=O)O)CC4)n3[C@@H](C)Cc3ccc(OC(F)F)cc3)c2C1 [Compound 69] ?
Response: 0.001 to 0.01 µM

Request: Quick one: IC50 of COC(=O)N1CCc2ccc3c(nc(-c4cccc(CC(=O)O)c4)n3[C@@H](C)Cn3cc(Cl)cn3)c2C1 [Compound 113] ?
Response: 0.001 to 0.01 µM

Request: Quick one: IC50 of COC(=O)N1CCc2ccc3c(nc(-c4ccc(C(=O)O)c(F)c4)n3[C@@H](C)Cc3ccccc3)c2C1 [Compound 133] ?
Response: 0.001 to 0.01 µM

Request: Quick one: IC50 of COC(=O)N1CCc2ccc3c(nc(Cc4cc(O)no4)n3[C@H](C)Cc3ccccc3)c2C1 [Compound 273] ?
Response: 0.01 to 0.1 µM

Request: Quick one: IC50 of COC(=O)N1CCc2ccc3c(nc(-c4cccc([C@](C)(O)C(=O)O)c4)n3[C@@H](C)Cc3ccccc3)c2C1 [Compound 184] ?
Response: 0.01 to 0.1 µM

Request: Quick one: IC50 of COC(=O)N1CCc2ccc3c(nc(N4CCCCC4)n3[C@H](C)Cc3cccc(C(=O)O)c3)c2C1 (single isomer, unassigned) [Compound 33] ?
Response: 0.001 to 0.01 µM

Request: Quick one: IC50 of COC(=O)N1CCc2ccc3c(nc(N4CCCCC4)n3C[C@@H](CC(=O)O)c3ccc(F)c(F)c3)c2C1 [Compound 25] ?
Response: 0.001 to 0.01 µM

Request: Quick one: IC50 of COC(=O)N1CCc2ccc3c(nc(N4CCC(C(=O)O)CC4)n3[C@H](C)Cc3ccc(F)c(F)c3)c2C1 (single isomer, unassigned) [Compound 307] ?
Response: 0.1 to 1 µM

Request: Quick one: IC50 of COC(=O)N1CCc2c([C@@H]3CCOC3)cc3c(nc([C@H]4CC[C@H](C(=O)O)CC4)n3CCc3ccccc3)c2C1 [Compound 90] ?
Response: 0.001 to 0.01 µM

Request: Quick one: IC50 of COC(=O)N1CCc2ccc3c(nc(N4CCC(C(=O)O)CC4)n3[C@@H](C)C(F)(F)c3ccccc3)c2C1 (single isomer, unassigned) [Compound 24] ?
Response: 0.001 to 0.01 µM

Request: Quick one: IC50 of COC(=O)N1CCc2c(C(=O)O)cc3c(nc(N4CCCCC4)n3C[C@@H](C)c3ccccc3)c2C1 [Compound 103] ?
Response: 0.001 to 0.01 µM

Request: Quick one: IC50 of COC(=O)N1CCc2ccc3c(nc([C@H]4CC[C@@H](S(N)(=O)=O)CC4)n3[C@H](C)Cc3ccccc3)c2C1 [Compound 310] ?
Response: 0.1 to 1 µM

Request: Quick one: IC50 of COC(=O)N1CCc2ccc3c(nc(C4CCCCC4)n3C[C@H](CC(=O)O)c3ccc(F)c(F)c3)c2C1 (single isomer, unassigned) [Compound 189] ?
Response: 0.01 to 0.1 µM

Request: Quick one: IC50 of COC(=O)N1CCc2ccc3c(nc(C4CCCCC4)n3[C@@H](C)C[C@H]3CC[C@H](C(=O)O)CC3)c2C1 [Compound 48] ?
Response: 0.001 to 0.01 µM

Request: Quick one: IC50 of COC(=O)N1CCc2ccc3c(nc([C@H]4CC[C@H](C(=O)O)CC4)n3[C@@H](CO)Cc3ccccc3)c2C1 [Compound 151] ?
Response: 0.001 to 0.01 µM

Request: Quick one: IC50 of COC(=O)N1CCc2ccc3c(nc([C@H]4CC[C@H](C(=O)O)CC4)n3[C@@H](C)CC3CCOCC3)c2C1 [Compound 188] ?
Response: 0.01 to 0.1 µM

Request: Quick one: IC50 of COC(=O)N1CCc2ccc3c(nc([C@H]4CC[C@H](C(=O)O)CC4)n3[C@H](C)Cc3c(F)cccc3F)c2C1 [Compound 95] ?
Response: 0.001 to 0.01 µM
